biological target: LdIMPDH (Leishmania donovani, UniProt P21620); experiment: biochemical; assay type: binding; settings: 20 μM LdIMPDH, single phase binding isotherm
Sequence (P21620 whole entry): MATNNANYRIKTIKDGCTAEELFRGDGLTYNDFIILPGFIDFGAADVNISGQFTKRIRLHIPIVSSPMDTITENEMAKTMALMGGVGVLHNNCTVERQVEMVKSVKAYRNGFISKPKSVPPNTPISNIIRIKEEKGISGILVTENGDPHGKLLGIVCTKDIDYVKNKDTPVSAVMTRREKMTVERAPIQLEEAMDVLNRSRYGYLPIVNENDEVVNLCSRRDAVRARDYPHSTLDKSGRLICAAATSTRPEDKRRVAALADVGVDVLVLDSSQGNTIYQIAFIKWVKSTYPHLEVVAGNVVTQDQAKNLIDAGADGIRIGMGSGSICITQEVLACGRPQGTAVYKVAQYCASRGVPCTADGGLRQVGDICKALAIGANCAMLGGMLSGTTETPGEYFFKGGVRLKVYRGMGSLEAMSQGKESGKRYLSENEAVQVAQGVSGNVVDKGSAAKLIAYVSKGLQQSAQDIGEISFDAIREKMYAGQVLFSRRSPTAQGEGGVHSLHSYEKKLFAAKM
RECORDED METRIC: pKd
Just so you know, pKd here is -log10 of the concentration in molar units; reply with that number alone.

COMPOUND: Nc1ncnc2c1ncn2[C@@H]1O[C@H](COP(=O)(O)OP(=O)(O)OP(=O)(O)O)[C@@H](O)[C@H]1O [ATP]
RECORDED METRIC: pKd
RESULT NUMBER: 3.89

Attention now shifts to the item below.
Requested field: pKd. Item: Nc1nc2c(ncn2[C@@H]2O[C@H](COP(=O)(O)OP(=O)(O)OP(=O)(O)O)[C@@H](O)[C@H]2O)c(=O)[nH]1 [GTP] 4.17
